- system under test: T1, human CD86-murine Ig fusion protein (human)
- T1 construct: Bought (Ancell #509-820); also called hCD86-mIg
- T1 chain: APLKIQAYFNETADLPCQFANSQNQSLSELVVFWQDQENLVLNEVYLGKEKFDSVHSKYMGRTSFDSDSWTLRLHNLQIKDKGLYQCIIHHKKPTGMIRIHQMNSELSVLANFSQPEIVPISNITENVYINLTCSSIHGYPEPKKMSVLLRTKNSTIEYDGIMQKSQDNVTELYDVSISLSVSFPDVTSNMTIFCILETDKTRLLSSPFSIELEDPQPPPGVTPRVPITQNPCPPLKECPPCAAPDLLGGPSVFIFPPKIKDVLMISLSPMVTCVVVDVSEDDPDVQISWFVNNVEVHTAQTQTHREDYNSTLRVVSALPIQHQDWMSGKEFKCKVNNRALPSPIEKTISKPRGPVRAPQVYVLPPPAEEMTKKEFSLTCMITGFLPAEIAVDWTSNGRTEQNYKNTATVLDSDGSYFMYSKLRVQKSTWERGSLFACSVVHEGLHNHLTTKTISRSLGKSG
- method summary: SPR Biacore, hCD86-mIg captured
Hi there, I'd appreciate the recorded Kd for every entry that follows.

Your task in this section: give Kd for each listed record.
1. D27-IgG2 (Fc fusion) MHVAQPAVVLASSRGIASFVCEYESPGKANEVRVTVLREAGSQVTEVCAMTYMVEDELTFLDDPSCTGTFSGNQVNLTIQGLRAADTGLYICKVELMYPPPYYLGLGNGTQIYVIDPEPCPDSDERKCCVECPPCPAPPVAGPSVFLFPPKPKDTLMISRTPEVTCVVVDVSHEDPEVQFNWYVDGVEVHNAKTKPREEQFNSTFRVVSVLTVVHQDWLNGKEYKCKVSNKGLPAPIEKTISKTKGQPREPQVYTLPPSREEMTKNQVSLTCLVKGFYPSDIAVEWESNGQPENNYKTTPPMLDSDGSFFLYSKLTVDKSRWQQGNVFSCSVMHEALHNHYTQKSLSLSPG
2. D4-IgG2 (Fc fusion, also called clone D4) MHVAQPAVVLASSRGIASFVCEYSSPGKADEIRVTVLRQASSQVTEVCAMTYMEGDELTFLDDPTCTGTFSGNQVNLTIQGLRAVDTGLYICKVELMYPPPYYLGFGNGTQIYVIDPEPCPDSDERKCCVECPPCPAPPVAGPSVFLFPPKPKDTLMISRTPEVTCVVVDVSHEDPEVQFNWYVDGVEVHNAKTKPREEQFNSTFRVVSVLTVVHQDWLNGKEYKCKVSNKGLPAPIEKTISKTKGQPREPQVYTLPPSREEMTKNQVSLTCLVKGFYPSDIAVEWESNGQPENNYKTTPPMLDSDGSFFLYSKLTVDKSRWQQGNVFSCSVMHEALHNHYTQKSLSLSPG
3. D3-9-IgG2 (Fc fusion) MHVAQPAVVLASSRGIASFVCEYESPGKANEIRVTVLRQAGSQVTEVCAMTYMKGDELTFLDDPICTGTFSGNQVNLTIQGLRAADTGLYICKVELMYPPPYYLGFGNGTQIYVIDPEPCPDSDERKCCVECPPCPAPPVAGPSVFLFPPKPKDTLMISRTPEVTCVVVDVSHEDPEVQFNWYVDGVEVHNAKTKPREEQFNSTFRVVSVLTVVHQDWLNGKEYKCKVSNKGLPAPIEKTISKTKGQPREPQVYTLPPSREEMTKNQVSLTCLVKGFYPSDIAVEWESNGQPENNYKTTPPMLDSDGSFFLYSKLTVDKSRWQQGNVFSCSVMHEALHNHYTQKSLSLSPG
4. D31-IgG2 (Fc fusion) MHVAQPAVVLASSRGIASFVCEYEAPHNADEIRVTVLRQAGSQVTEVCAMTYMVEDELTFLDKSICTGTFSGNQVNLTIQGLRAMDTGLYICKVELMYPPPYYLGIGNGTQIYVIDPEPCPDSDERKCCVECPPCPAPPVAGPSVFLFPPKPKDTLMISRTPEVTCVVVDVSHEDPEVQFNWYVDGVEVHNAKTKPREEQFNSTFRVVSVLTVVHQDWLNGKEYKCKVSNKGLPAPIEKTISKTKGQPREPQVYTLPPSREEMTKNQVSLTCLVKGFYPSDIAVEWESNGQPENNYKTTPPMLDSDGSFFLYSKLTVDKSRWQQGNVFSCSVMHEALHNHYTQKSLSLSPG

Result block:
["< 0.131 nM", "0.523 to 2.65 nM", "< 0.131 nM", "0.131 to 0.262 nM"]
